What Emax was measured for each of the following?
System: yeast strains expressing the human ApoE4
Test: Yeast ApoE4 toxicity rescue assay (OD600 growth)
Settings: 24 h, read-out: ApoE4 Emax
One number for each entry, in %.

[
  {
    "Compound": "CCOc1ccc(-c2noc(C3CCN(C(=O)[C@@H]4CC(=O)N(c5ccccc5)C4)CC3)n2)cc1OC",
    "System tested": "yeast strains expressing the human ApoE4",
    "Emax, %": 633
  },
  {
    "Compound": "CCN1C(=O)COc2ccc(-c3noc(C4CCN(C(=O)C5CC(=O)N(c6ccc(C)c(C)c6)C5)CC4)n3)cc21 (centres unmarked)",
    "System tested": "yeast strains expressing the human ApoE4",
    "Emax, %": 76
  },
  {
    "Compound": "O=C(NCC(=O)N1CCC(c2nc(-c3ccccc3)no2)CC1)c1ccccc1",
    "System tested": "yeast strains expressing the human ApoE4",
    "Emax, %": 301
  },
  {
    "Compound": "Cc1cccc(-c2nc(C3CCN(C(=O)C4CC(=O)N(c5ccc(C)c(C)c5)C4)CC3)no2)c1 (centres unmarked)",
    "System tested": "yeast strains expressing the human ApoE4",
    "Emax, %": 286
  },
  {
    "Compound": "COc1ccc(-c2csc(C3CCN(C(=O)CNC(=O)c4ccccc4)CC3)n2)cc1OC",
    "System tested": "yeast strains expressing the human ApoE4",
    "Emax, %": 750
  }
]

Dear colleague, could you please provide Emax for the compounds listed below?
1. COc1ccc(-c2noc(C3CCN(C(=O)[C@@H]4CC(=O)N(c5ccccc5)C4)CC3)n2)cc1OC
2. COc1ccc(-c2noc(C3CCN(C(=O)CNC(c4ccccc4)C(F)(F)F)CC3)n2)cc1OC (centres unmarked)
3. CCOc1ccc(-c2noc(C3CCN(C(=O)NCCc4ccccc4)CC3)n2)cc1OC

A)
790
596
567

* * *

Biological target: SCD1 (Homo sapiens)
Construct: host or cells: S. cerevisiae ole1Δ strain (W303 pdr1Δ pdr3Δ background), plasmid pRS316 with TDH3 promoter and CYC1 terminator
Sequence (O00767 whole entry): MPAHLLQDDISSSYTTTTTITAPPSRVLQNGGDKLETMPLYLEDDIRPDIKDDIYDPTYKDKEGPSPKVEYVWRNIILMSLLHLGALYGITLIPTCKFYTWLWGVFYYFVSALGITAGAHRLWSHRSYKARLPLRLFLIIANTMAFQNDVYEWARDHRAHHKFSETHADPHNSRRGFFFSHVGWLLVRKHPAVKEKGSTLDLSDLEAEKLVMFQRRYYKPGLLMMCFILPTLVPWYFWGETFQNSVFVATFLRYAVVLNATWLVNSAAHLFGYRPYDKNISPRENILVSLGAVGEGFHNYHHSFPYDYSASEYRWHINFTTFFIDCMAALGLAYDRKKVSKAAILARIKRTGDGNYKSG
Assay: Growth inhibition of humanized yeast strain expressing SCD1 as sole desaturase
Type: cell-based
Conditions: humanized yeast strain expressing SCD1
What SCD1 % Max Inhibition was measured for each of the following?
One number for each entry, in %.

// worked examples, SCD1 % Max Inhibition included
[
  {
    "Compound": "CCOc1ccc(-c2noc(C3CCN(C(=O)CN4Cc5ccccc5C4=O)CC3)n2)cc1OC",
    "Experimental readout": "SCD1 % Max Inhibition",
    "Measured result": 78.19
  },
  {
    "Compound": "CCOc1cnc(-c2noc(C3CCN(C(=O)CNC(=O)c4ccccc4)CC3)n2)nc1OC",
    "Experimental readout": "SCD1 % Max Inhibition",
    "Measured result": 90.07
  },
  {
    "Compound": "CCN1C(=O)COc2ccc(-c3nc(C(C)c4ccccc4)no3)cc21 (stereo not shown)",
    "Experimental readout": "SCD1 % Max Inhibition",
    "Measured result": 63.44
  },
  {
    "Compound": "Cc1nn(C)c2cc(-c3noc(C4CCN(C(=O)[C@H](NC(=O)c5ccccc5)C5CC5)CC4)n3)ccc12",
    "Experimental readout": "SCD1 % Max Inhibition",
    "Measured result": 81.79
  },
  {
    "Compound": "Cc1nn(C)c2cc(-c3noc(N4CCN(C(=O)c5ccccc5Cl)CC4)n3)ccc12",
    "Experimental readout": "SCD1 % Max Inhibition",
    "Measured result": 41.84
  }
]

Dear colleague, could you please provide SCD1 % Max Inhibition for the compounds listed below?
1. CCOc1ncc(-c2noc(C3CCN(C(=O)CNC(=O)c4ccccc4)CC3)n2)cc1OC
2. Cc1nn(C)c2cc(-c3noc(C4CCN(C(=O)c5cccc(F)c5)CC4)n3)ccc12
3. COc1ccc(-c2nccc(C3CCN(C(=O)CNC(=O)c4ccccc4)CC3)n2)cc1OC
4. CCOc1ccc(-c2noc(N3CCN(C(=O)CN4Cc5ccccc5C4=O)CC3)n2)cc1OC
5. Cc1ccc(-c2nc(C3CCN(C(=O)C4CC(=O)N(c5ccc(C)c(C)c5)C4)CC3)no2)cc1 (stereo not shown)
6. Cc1nn(C)c2cc(-c3noc(C4CCN(C(=O)CNC(=O)c5ccccc5)CC4)n3)cnc12

A)
[115.10, 4.81, 100.56, 94.06, 67.05, 90.19]

Dear colleague, could you please provide SCD1 % Max Inhibition for the compounds listed below?
1. COc1ccc(-c2nnc(C3CCN(C(=O)CNC(=O)c4ccccc4)CC3)o2)cc1OC
2. Cc1nn(C)c2cc(-c3nc(C4CCN(C(=O)C5CC(=O)N(c6cccc(C#N)c6)C5)CC4)no3)ccc12 (stereo not shown)
3. CCc1c2ccc(-c3noc(C4CCN(C(=O)CNC(=O)c5ccccc5)CC4)n3)cc2nn1C
4. CCn1nc2cc(-c3noc(C4CCN(C(=O)CNC(=O)c5ccccc5)CC4)n3)ccc2c1C

A)
77.01
41.9
71.6
74.7

Dear colleague, could you please provide SCD1 % Max Inhibition for the compounds listed below?
1. CCOc1cc(-c2noc(C3CCN(C(=O)CNC(=O)c4ccccc4)CC3)n2)ccc1OC
2. CCOc1ncc(-c2noc(C3CCN(C(=O)C4CC(=O)N(c5ccccc5)C4)CC3)n2)cc1OC (stereo not shown)
3. CC(C)n1ncc2ccc(-c3noc(N4CCN(C(=O)c5ccccc5)CC4)n3)cc21
4. CCOc1ccc(-c2noc(C3CCN(C(=O)C4CN(c5ccccc5)C(=O)CO4)CC3)n2)cc1OC (stereo not shown)

A)
[27.85, 97.82, 67.00, 74.46]

Dear colleague, could you please provide SCD1 % Max Inhibition for the compounds listed below?
1. COc1ccc(-c2noc(C3CCNCC3)n2)cc1OC
2. COc1ccc(-c2noc(C3CCN(C(=O)[C@@H](CO)NC(=O)c4ccccc4)CC3)n2)cc1OC
3. Cc1nn(C)c2cc(-c3noc(C4CCN(C(=O)C5CC(=O)N(CC6CC6)C5)CC4)n3)ccc12 (stereo not shown)

A)
1: 75.87; 2: 97.91; 3: 77.70
